Measured IC50 of individual entries
target: P-selectin (Homo sapiens, UniProt P16109)
Sequence (P16109 whole entry): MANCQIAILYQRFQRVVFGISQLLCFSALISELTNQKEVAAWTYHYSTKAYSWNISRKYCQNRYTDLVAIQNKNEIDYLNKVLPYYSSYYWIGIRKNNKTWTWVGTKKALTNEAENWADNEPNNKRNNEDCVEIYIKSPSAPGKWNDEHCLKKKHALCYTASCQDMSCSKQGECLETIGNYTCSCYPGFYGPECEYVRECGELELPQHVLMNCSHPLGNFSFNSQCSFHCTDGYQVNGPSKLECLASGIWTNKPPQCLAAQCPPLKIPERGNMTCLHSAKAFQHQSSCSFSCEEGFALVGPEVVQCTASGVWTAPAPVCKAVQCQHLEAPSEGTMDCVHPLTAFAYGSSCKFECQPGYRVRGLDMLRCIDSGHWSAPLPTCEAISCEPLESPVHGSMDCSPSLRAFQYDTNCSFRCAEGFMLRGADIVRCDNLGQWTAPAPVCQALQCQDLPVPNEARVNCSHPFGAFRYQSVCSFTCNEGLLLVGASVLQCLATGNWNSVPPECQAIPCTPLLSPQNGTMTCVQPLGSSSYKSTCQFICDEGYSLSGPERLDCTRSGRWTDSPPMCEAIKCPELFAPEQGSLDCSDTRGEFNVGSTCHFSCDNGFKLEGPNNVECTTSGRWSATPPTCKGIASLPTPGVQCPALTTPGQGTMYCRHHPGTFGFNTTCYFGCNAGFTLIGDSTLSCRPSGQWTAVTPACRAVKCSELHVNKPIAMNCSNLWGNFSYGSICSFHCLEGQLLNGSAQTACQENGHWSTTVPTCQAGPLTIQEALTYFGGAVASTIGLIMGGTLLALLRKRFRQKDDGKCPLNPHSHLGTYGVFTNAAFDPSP
Answer format: numeric, nM implied, no suffix.

CCCCCCCCCCCCCCC(CCCCCCCCCCCCCC)CN1CCCS[C@@H](CCC(=O)O)C(=O)N[C@H](CO[C@H]2O[C@H](CO)[C@@H](O)[C@@H](O)[C@@H]2O)C1=O ... 2570

Give IC50 for this entry on P-selectin (Homo sapiens, UniProt P16109): CCCCCCCCCCCCCCC(CCCCCCCCCCCCCC)C(=O)N[C@@H](CO[C@@H]1O[C@@H](CO)[C@H](O)[C@H](O)[C@H]1O)C(=O)N[C@H](CCC(=O)O)C(=O)NC
450
